Sourced from ChEMBL document CHEMBL1131451

pKi: −log10 of the molar value.
Measurement record for Tissue-type plasminogen activator (Homo sapiens, UniProt P00750); quantity recorded: pKi.
Assay Metric: pKi

>>> df
                                   compound  value_observed
0  CC(C)c1cc(C(C)C)c(S(=O)(=O)NC(Cc2cccc(C(N)N)c2)C(=O)N2CCCC(C(=O)NCc3ccccc3)C2)c(C(C)C)c1 (stereo not given)            6.01
1  Cc1ccc(S(=O)(=O)NC(Cc2cccc(C(N)N)c2)C(=O)N2CCCCC2)cc1 (stereo not given)            3.92
2  CNC(=O)C(Cc1cccc(C(N)N)c1)NC(=O)CNS(=O)(=O)c1ccc2ccccc2c1 (stereo not given)            4.16
3  CC(C)c1cc(C(C)C)c(S(=O)(=O)NC(Cc2cccc(C(N)N)c2)C(=O)N2CCN(C(=O)OCc3ccccc3)CC2)c(C(C)C)c1 (stereo not given)            6.02
4  NC(N)c1ccc(CC(NC(=O)CNS(=O)(=O)c2ccc3ccccc3c2)C(=O)N2CCCCC2)cc1 (stereo not given)            4.15

###

System Tested: Coagulation factor X (Bos taurus)
Sequence (P00743 41-180 limits assumed): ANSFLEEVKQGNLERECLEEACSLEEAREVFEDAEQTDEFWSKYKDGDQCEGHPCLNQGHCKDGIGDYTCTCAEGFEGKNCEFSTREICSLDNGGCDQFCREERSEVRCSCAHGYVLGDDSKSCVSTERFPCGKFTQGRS
Sequence (P00743 234-492 limits assumed): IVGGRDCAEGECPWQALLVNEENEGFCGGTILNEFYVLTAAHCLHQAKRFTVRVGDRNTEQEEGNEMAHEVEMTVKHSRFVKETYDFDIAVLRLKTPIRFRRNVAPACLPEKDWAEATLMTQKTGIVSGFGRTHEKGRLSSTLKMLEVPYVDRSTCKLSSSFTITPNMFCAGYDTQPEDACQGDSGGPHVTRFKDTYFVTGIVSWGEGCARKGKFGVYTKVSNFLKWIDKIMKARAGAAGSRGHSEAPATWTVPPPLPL
pKi: −log10 of the molar value.
A collection of molecules and their measured pKi
Assay Metric: pKi

In [3]: df
Out[3]:
                                    molecule  assay_metric  value_observed
 0  CCOC(=O)C1CCN(C(=O)C(Cc2cccc(C(=N)N)c2)NS(=O)(=O)c2ccc3ccccc3c2)CC1 (stereo unspecified)           pKi            4.74
 1  COC(=O)C1CCN(C(=O)C(Cc2cccc(C(=N)N)c2)NS(=O)(=O)c2ccc3ccccc3c2)CC1 (stereo unspecified)           pKi            4.37
 2  CNC(=O)C(Cc1cccc(C(N)N)c1)NC(=O)CNS(=O)(=O)c1ccc2ccccc2c1 (stereo unspecified)           pKi            5.52
 3  CC1CCN(C(=O)C(Cc2cccc(C(=N)N)c2)NS(=O)(=O)c2cccc3ccccc23)CC1 (stereo unspecified)           pKi            4.38
 4  CC1CCN(C(=O)C(Cc2cccc(C(=N)N)c2)NS(=O)(=O)c2c(C(C)C)cc(C(C)C)cc2C(C)C)CC1 (stereo unspecified)           pKi            5.70
 5  CC1CCN(C(=O)C(Cc2cccc(C(=N)N)c2)NS(=O)(=O)c2ccc3c(c2)C(=O)c2ccccc2C3=O)CC1 (stereo unspecified)           pKi            5.64
 6  NC(N)c1ccc(/C=C2\CCCC/C(=C\c3ccc(C(N)N)cc3)C2=O)cc1           pKi            7.89
 7  Cc1cc(C)c(S(=O)(=O)NC(Cc2cccc(C(=N)N)c2)C(=O)N2CCC(C)CC2)c(C)c1 (stereo unspecified)           pKi            4.02
 8  COC(=O)C1CCCN(C(=O)C(Cc2cccc(C(=N)N)c2)NS(=O)(=O)c2ccc3ccccc3c2)C1 (stereo unspecified)           pKi            4.74
 9  CC(C)c1cc(C(C)C)c(S(=O)(=O)NC(Cc2cccc(C(N)N)c2)C(=O)N2CCN(C(=O)OCc3ccccc3)CC2)c(C(C)C)c1 (stereo unspecified)           pKi            5.57
10  Cc1ccc(S(=O)(=O)NC(Cc2cccc(C(=N)N)c2)C(=O)N2CCC(C)CC2)cc1 (stereo unspecified)           pKi            4.15

###

A collection of compounds and their measured Ki
System Tested: Serine protease 1 (Bos taurus)
Sequence (P00760 whole entry): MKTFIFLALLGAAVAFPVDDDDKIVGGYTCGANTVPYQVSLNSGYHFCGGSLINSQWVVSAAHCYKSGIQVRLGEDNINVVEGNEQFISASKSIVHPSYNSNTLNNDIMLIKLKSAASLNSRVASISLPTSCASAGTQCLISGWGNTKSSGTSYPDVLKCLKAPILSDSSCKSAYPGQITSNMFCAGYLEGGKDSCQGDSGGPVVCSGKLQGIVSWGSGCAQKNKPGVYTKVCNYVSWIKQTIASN
Assay Metric: Ki (nM)

In [3]: df
Out[3]:
                                   compound                   system_tested  value_observed
0  CC(C)c1cc(C(C)C)c(S(=O)(=O)NC(Cc2cccc(C(N)N)c2)C(=O)N2CCCC(C(=O)NCc3ccccc3)C2)c(C(C)C)c1 (stereo not drawn)  Serine protease 1 (Bos taurus)             460
1  CCOC(=O)N1CCN(C(=O)C(Cc2cccc(C(N)N)c2)NS(=O)(=O)c2c(C(C)C)cc(C(C)C)cc2C(C)C)CC1 (stereo not drawn)  Serine protease 1 (Bos taurus)              37
2  COC(=O)C(Cc1cccc(C(N)N)c1)NC(=O)CNS(=O)(=O)c1ccc(C)cc1 (stereo not drawn)  Serine protease 1 (Bos taurus)            5700

###

Measurement record for UniProtKB P00735; quantity recorded: log10 of Ki.
Assay Metric: log10 of Ki (log10 of the value in nM)

In [3]: df
Out[3]:
                                    molecule  assay_metric  value_observed
 0  CC1CCCN(C(=O)C(Cc2cccc(C(=N)N)c2)NS(=O)(=O)c2ccc3ccccc3c2)C1 (stereo unspecified)   log10 of Ki            2.11
 1  CC1CCN(C(=O)C(Cc2cccc(C(=N)N)c2)NS(=O)(=O)c2c(C(C)C)cc(C(C)C)cc2C(C)C)CC1 (stereo unspecified)   log10 of Ki            1.88
 2  CNC(=O)C(Cc1cccc(C(N)N)c1)NC(=O)CNS(=O)(=O)c1ccc2ccccc2c1 (stereo unspecified)   log10 of Ki            3.98
 3  Cc1ccc(S(=O)(=O)NC(Cc2cccc(C(N)N)c2)C(=O)N2CCCCC2)cc1 (stereo unspecified)   log10 of Ki            2.53
 4  COC(=O)C1CCCN(C(=O)C(Cc2cccc(C(=N)N)c2)NS(=O)(=O)c2ccc3ccccc3c2)C1 (stereo unspecified)   log10 of Ki            2.18
 5                            N=C(N)c1ccccc1   log10 of Ki            5.95
 6  COC(=O)C1CCN(C(=O)C(Cc2cccc(C(=N)N)c2)NS(=O)(=O)c2ccc3ccccc3c2)CC1 (stereo unspecified)   log10 of Ki            1.23
 7  NC(N)c1ccc(/C=C2\CCCC/C(=C\c3ccc(C(N)N)cc3)C2=O)cc1   log10 of Ki            2.51
 8  CCOC(=O)C1CCN(C(=O)C(Cc2cccc(C(=N)N)c2)NS(=O)(=O)c2ccc3ccccc3c2)CC1 (stereo unspecified)   log10 of Ki            2.34
 9  NC(N)c1ccc(CC(NC(=O)CNS(=O)(=O)c2ccc3ccccc3c2)C(=O)N2CCCCC2)cc1 (stereo unspecified)   log10 of Ki            0.78
10  CC(C)c1cc(C(C)C)c(S(=O)(=O)NC(Cc2cccc(C(N)N)c2)C(=O)N2CCCC(C(=O)NCc3ccccc3)C2)c(C(C)C)c1 (stereo unspecified)   log10 of Ki            3.26

###

System Tested: Urokinase-type plasminogen activator (Homo sapiens)
Simple rule here: Ki less than 30 µM is met, otherwise not met.

In [3]: df
Out[3]:
                                    compound    label
 0  CC1CCCN(C(=O)C(Cc2cccc(C(=N)N)c2)NS(=O)(=O)c2ccc3ccccc3c2)C1 (stereo not given)  not met
 1  CNC(=O)C(Cc1cccc(C(N)N)c1)NC(=O)CNS(=O)(=O)c1ccc2ccccc2c1 (stereo not given)  not met
 2  CC1CCN(C(=O)C(Cc2cccc(C(=N)N)c2)NS(=O)(=O)c2ccc3ccccc3c2)CC1 (stereo not given)  not met
 3  N=C(N)c1cccc(CC(NS(=O)(=O)c2ccc3ccccc3c2)C(=O)N2CCN(c3ccccc3)CC2)c1 (stereo not given)  not met
 4  CC(C)OC(=O)C(Cc1cccc(C(N)N)c1)NC(=O)CNS(=O)(=O)c1ccc2ccccc2c1 (stereo not given)  not met
 5  CCOC(=O)C1CCN(C(=O)C(Cc2cccc(C(=N)N)c2)NS(=O)(=O)c2ccc3ccccc3c2)CC1 (stereo not given)      met
 6  CC1CCN(C(=O)C(N)Cc2cccc(C(=N)N)c2)CC1 (stereo not given)  not met
 7  Cc1cc(C)c(S(=O)(=O)NC(Cc2cccc(C(=N)N)c2)C(=O)N2CCC(C)CC2)c(C)c1 (stereo not given)      met
 8  COC(=O)C1CCCN(C(=O)C(Cc2cccc(C(=N)N)c2)NS(=O)(=O)c2ccc3ccccc3c2)C1 (stereo not given)      met
 9  CC1CCN(C(=O)C(Cc2cccc(C(=N)N)c2)NC(=O)OC(C)(C)C)CC1 (stereo not given)  not met
10  CC(C)c1cc(C(C)C)c(S(=O)(=O)NC(Cc2cccc(C(N)N)c2)C(=O)N2CCCC(C(=O)NCc3ccccc3)C2)c(C(C)C)c1 (stereo not given)      met
11  NC(N)c1ccc(/C=C2\CCCC/C(=C\c3ccc(C(N)N)cc3)C2=O)cc1      met
12  CC(C)c1cc(C(C)C)c(S(=O)(=O)NC(Cc2cccc(C(N)N)c2)C(=O)N2CCN(C(=O)OCc3ccccc3)CC2)c(C(C)C)c1 (stereo not given)      met
13  Cc1ccc(S(=O)(=O)NC(Cc2cccc(C(N)N)c2)C(=O)N2CCCCC2)cc1 (stereo not given)  not met
14  COC(=O)C1CCN(C(=O)C(Cc2cccc(C(=N)N)c2)NS(=O)(=O)c2ccc3ccccc3c2)CC1 (stereo not given)      met
